Kindly supply the reported cell viability values for the records listed here.
Test system: Caco-2
Experiment: cell viability relative to DMSO; higher = less toxic
Conditions: 72 h; 10000 nM
Numbers only; they are read as %.

Tell me cell viability reported for `C[C@H](NC[C@H](O)CP(=O)(O)CC1CCCCC1)c1ccc(Cl)c(Cl)c1`
91.4

Return value of cell viability for input O=C(NC(Cc1cc(=O)[nH]c2ccccc12)C(=O)O)c1ccc(Cl)cc1 (centres undefined) [rebamipide] , no commentary.
99.3

Output measured cell viability for this item: CC(CNC1CCCCC1)OC(=O)c1ccccc1 (centres undefined)
102

Query cell viability for `Clc1ccc(C2(c3ccc(-c4cn[nH]c4)cc3)CCNCC2)cc1`
73.9

Identify the reported cell viability for the following entry. CN(C)CCOC(c1ccccc1)c1ccccc1.Cn1c(=O)c2[nH]c(Cl)nc2n(C)c1=O [dimenhydrinate]
99.5

Provide only the value of recorded cell viability for `N[C@@H]1c2cccnc2[C@H](OC(=O)N2CCC(n3c(=O)[nH]c4ncccc43)CC2)CC[C@H]1c1cccc(F)c1F`
102

Tell me its cell viability given CC(=O)Nc1ccc(OC(C)=O)cc1 [diacetamate] as the entry.
111

State its cell viability for this molecule: CC(C)OC(=O)[C@H](C)N[P@](=O)(CO[C@H](C)Cn1cnc2c(N)ncnc21)Oc1ccccc1 [tenofovir-alafenamide]
94.3

Please supply the value of reported cell viability for the item `OC[C@@H](O)[C@@H](O)[C@@H](O)CO`
103

Assign cell viability to the following record: `c1cnc(SCc2cccnc2)nc1`
101

Identify measured cell viability corresponding to `Cc1ccc(C(=O)Nc2ccc(CN3CCN(C)CC3)c(C(F)(F)F)c2)cc1C#Cc1cnc2[nH]ncc2c1`
2.4

Answer with the recorded cell viability for the molecule listed here: CC1=CC[C@@H](C(C)(C)O)C[C@@H]1O [sobrepin]
87.9

Answer with reported cell viability of `Cc1ccc(NCCCc2ccccc2)c(N)c1`
79.9

Report measured cell viability; entry is CC(O)Cn1cnc2c1c(=O)n(C)c(=O)n2C (centres undefined)
94.6

Give cell viability for the following molecule: `Cc1cc(C(=O)Nc2nc3cccc(Cl)c3n2[C@@H]2CCCCN(C(=O)/C=C/CN(C)C)C2)ccn1`
72.3

Complete the entry with cell viability for CCN(CC)C(=O)Nc1ccc(OCC(O)CNC(C)(C)C)c(C(C)=O)c1 (centres undefined)
106

# return recorded cell viability for entry `COc1ccc(-c2cc(C(F)F)nn2-c2ccc(S(N)(=O)=O)cc2)cc1F`
102

Let me know recorded cell viability for `O=C(O)CCCN1CCC(O[C@@H](c2ccc(Cl)cc2)c2ccccn2)CC1` , thanks.
107

Tell me cell viability reported for `CN(C)c1nc(N(C)C)nc(N(C)C)n1`
89.9

Complete the entry with cell viability for O=C(O)CCCc1ccccc1 [phenylbutyrate]
107

Identify the reported cell viability for the following entry. `CN1CCN(Cc2ccc(-c3cnc4[nH]cc(-c5ccc6[nH]ccc6c5)c4c3)cc2)CC1`
7.8

Note down cell viability recorded for CC(C)C[C@H](NC(=O)OCc1ccccc1)C(=O)N[C@@H](C[C@@H]1CCNC1=O)C(O)S(=O)(=O)O (some centres undefined) [GC376 sodium]
108

Answer with reported cell viability of `C=CCc1ccc(O)c(-c2ccc(O)c(CC=C)c2)c1`
90.9

Quick one: give measured cell viability for `Oc1ccc(Cl)cc1Cc1cc(Cl)ccc1O`
54.6

Specify reported cell viability for the molecule shown: `Cc1sc(C)c2c1CCC=C2c1c[nH]cn1`
94.6

Consider the molecule `CC(C)(C)NC(=O)[C@@H]1C[C@@H]2CCCC[C@@H]2CN1C[C@@H](O)[C@H](Cc1ccccc1)NC(=O)[C@H](CC(N)=O)NC(=O)c1ccc2ccccc2n1` . State its measured cell viability.
72.4

Tell me cell viability reported for CCCC(C)(COC(N)=O)COC(=O)NC(C)C (centres undefined)
104

Look up and report measured cell viability for this entry: CCCCCCCCCCCCCCCCCC(=O)OC[C@@H](O)[C@H]1OC[C@H](O)[C@H]1O [sorbitan-monostearate]
98.7

Please supply the value of reported cell viability for the item Cn1c2cc([S+](C)[O-])sc2c2cnn(Cc3cccc(N)c3)c(=O)c21 (centres undefined)
89

Origin of the recorded values: the supplement of paper PMC13380429
